- Tested on: 997537-175-T-J1-PDC complex spheroid viability
- assay.protocol: Anticancer human tumor 997537-175-T-J1-PDC patient-derived colon adenocarcinoma cell line growth inhibition [GQUAD]
- run.conditions: second compound 1 µM; first compound 3.16 µM; stronger effect = lower value
measured.endpoint: viability, T/C (%)
Field: numeric (%). Do not append units.

-- ask Find the measured viability, T/C: item COc1ccc([C@@H](O)c2cc(-c3ncnc4cc(N5CCOCC5)ccc34)c(F)cc2Cl)nn1 + CN(C)c1ccc(Nc2c3ccc(NC(=O)CCN4CCCC4)cc3nc3cc(NC(=O)CCN4CCCC4)ccc23)cc1 , target or system 997537-175-T-J1-PDC complex spheroid viability.
-- reply 100

----------
Recorded IC50 values for a group of compounds are listed next.
- System: 997537-175-T-J1-PDC complex spheroid viability
- assay.protocol: Anticancer human tumor 997537-175-T-J1-PDC cell line growth inhibition [GQUAD];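 note: spheroids exposed to the agents for 7 days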
- run.conditions: curve of first compound; second compound 1 µM

C#Cc1c(F)ccc2cc(O)cc(-c3ncc4c(N5CC6CCC(C5)N6)nc(OCC56CCCN5CC(F)C6)nc4c3F)c12 (stereo not drawn) + CN(C)c1ccc(Nc2c3ccc(NC(=O)CCN4CCCC4)cc3nc3cc(NC(=O)CCN4CCCC4)ccc23)cc1
> 10 µM
O=C(c1cc(Cc2n[nH]c(=O)c3ccccc23)ccc1F)N1CCN(C(=O)C2CC2)CC1 + Cc1[nH]c2ccc(F)cc2c1-c1nc2c3cccnc3c3ncccc3c2[nH]1
> 10 µM

-- ask Please report the recorded IC50 for CC(C)n1c(=O)n(C)c2cnc3cc(F)c(-c4ccc(OCCCN5CCCCC5)nc4)cc3c21 + Cc1cnc(CNC(=O)c2c(=O)c3ccc(N4CCCN(C)CC4)nc3n3c2sc2ccccc23)cn1 .
-- reply > 10 µM

----------
Recorded viability, T/C values for a group of molecules are listed next.
- Test system: 997537-175-T-J1-PDC complex spheroid viability
- assay.protocol: Anticancer human tumor 997537-175-T-J1-PDC cell line growth inhibition [GQUAD];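 note: spheroids exposed to the agents for 7 days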;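 for viability, T/C: 100% = DMSO vehicle control viability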
- run.conditions: second compound 0.0316 µM; first compound 0.1 µM; stronger effect = lower value
Field: numeric (%). Do not append units.

# count of solved cases: 2
C#Cc1c(F)ccc2cc(O)cc(-c3ncc4c(N5CC6CCC(C5)N6)nc(OCC56CCCN5CC(F)C6)nc4c3F)c12 (stereo not given) + Cc1[nH]c2ccc(F)cc2c1-c1nc2c3cccnc3c3ncccc3c2[nH]1
90.5
CC1COCCN1c1cc(-c2ccnn2C)c2ccnc(-c3ccn[nH]3)c2n1 (stereo not given) + Cc1[nH]c2ccc(F)cc2c1-c1nc2c3cccnc3c3ncccc3c2[nH]1
66.7

-- ask Find the measured viability, T/C: item CC(C)(O)C1CCC(Nc2ccc3ncc(-c4cccc(C(F)(F)F)c4)n3n2)CC1 (stereo not given) + CN(C)c1ccc(Nc2c3ccc(NC(=O)CCN4CCCC4)cc3nc3cc(NC(=O)CCN4CCCC4)ccc23)cc1 , target or system 997537-175-T-J1-PDC complex spheroid viability.
-- reply 108

----------
- System: 997537-175-T-J1-PDC complex spheroid viability
- assay.protocol: Anticancer human tumor 997537-175-T-J1-PDC cell line growth inhibition [GQUAD];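 note: spheroids exposed to the agents for 7 days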;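 for viability, T/C: 100% = DMSO vehicle control viability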
- run.conditions: second compound 0.316 µM; first compound 3.16 µM; stronger effect = lower value
Recorded viability, T/C values for a group of molecules are listed next.
Field: numeric (%). Do not append units.

# count of solved cases: 3
CC1COCCN1c1cc(C2(O)CC3CCC(C2)O3)c2cnn(-c3ccn[nH]3)c2n1 (stereo unspecified) + CN(C)c1ccc(Nc2c3ccc(NC(=O)CCN4CCCC4)cc3nc3cc(NC(=O)CCN4CCCC4)ccc23)cc1
48.7
COc1ncnc(C2CC2)c1-c1ncc2cnn(Cc3ccc(-c4nc(C(F)(F)F)cn4C(C)C)cc3)c2n1 + Cc1cnc(CNC(=O)c2c(=O)c3ccc(N4CCCN(C)CC4)nc3n3c2sc2ccccc23)cn1
91.3
CC(C)n1c(=O)n(C)c2cnc3cc(F)c(-c4ccc(OCCCN5CCCCC5)nc4)cc3c21 + CN(C)c1ccc(Nc2c3ccc(NC(=O)CCN4CCCC4)cc3nc3cc(NC(=O)CCN4CCCC4)ccc23)cc1
93.7

-- ask Please report the recorded viability, T/C for CCCS(=O)(=O)Nc1ccc(F)c(C(=O)c2c[nH]c3ncc(-c4ccc(Cl)cc4)cc23)c1F + Cc1cnc(CNC(=O)c2c(=O)c3ccc(N4CCCN(C)CC4)nc3n3c2sc2ccccc23)cn1 .
-- reply 55.2

-- ask Note, next up: Nc1ccn(C2OC(CO)C(O)C2(F)F)c(=O)n1 (stereo unspecified) + Cc1[nH]c2ccc(F)cc2c1-c1nc2c3cccnc3c3ncccc3c2[nH]1
-- reply 90.4

-- ask Note, next up: CCCS(=O)(=O)Nc1ccc(F)c(C(=O)c2c[nH]c3ncc(-c4ccc(Cl)cc4)cc23)c1F + CN(C)c1ccc(Nc2c3ccc(NC(=O)CCN4CCCC4)cc3nc3cc(NC(=O)CCN4CCCC4)ccc23)cc1
-- reply 59.4

-- ask Note, next up: O=C(NO)c1cnc(N2CCN(S(=O)(=O)c3ccc4ccccc4c3)CC2)nc1 + Cc1cnc(CNC(=O)c2c(=O)c3ccc(N4CCCN(C)CC4)nc3n3c2sc2ccccc23)cn1
-- reply 69.8

----------
- System: 997537-175-T-J1-PDC complex spheroid viability
- assay.protocol: Anticancer human tumor 997537-175-T-J1-PDC cell line growth inhibition [GQUAD];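 note: spheroids exposed to the agents for 7 days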;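 for viability, T/C: 100% = DMSO vehicle control viability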
- run.conditions: second compound 10 µM; first compound 0.000999 µM; stronger effect = lower value
Mark each entry yes if its viability, T/C sits below 80%, and no for all others.

Check out these entries, answers already filled in.
CCc1c2c(nc3ccc(O)cc13)-c1cc3c(c(=O)n1C2)COC(=O)[C@]3(O)CC + Cc1[nH]c2ccc(F)cc2c1-c1nc2c3cccnc3c3ncccc3c2[nH]1
yes
CC[C@@]1(O)C(=O)OCc2c1cc1n(c2=O)Cc2cc3c(CN(C)C)c(O)ccc3nc2-1 + Cc1cnc(CNC(=O)c2c(=O)c3ccc(N4CCCN(C)CC4)nc3n3c2sc2ccccc23)cn1
no
Cn1ncnc1[C@H]1c2n[nH]c(=O)c3cc(F)cc(c23)N[C@@H]1c1ccc(F)cc1 + Cc1cnc(CNC(=O)c2c(=O)c3ccc(N4CCCN(C)CC4)nc3n3c2sc2ccccc23)cn1
no
CC[C@@]1(O)C(=O)OCc2c1cc1n(c2=O)Cc2cc3c(CN(C)C)c(O)ccc3nc2-1 + Cc1[nH]c2ccc(F)cc2c1-c1nc2c3cccnc3c3ncccc3c2[nH]1
yes

Let us examine a further case.
-- ask A record lists Cc1[nH]c2ccccc2c1CCNCc1ccc(/C=C/C(=O)NO)cc1 + Cc1[nH]c2ccc(F)cc2c1-c1nc2c3cccnc3c3ncccc3c2[nH]1 . Is its viability, T/C below 80%?
-- reply no

----------
- Tested on: 997537-175-T-J1-PDC complex spheroid viability
- assay.protocol: Anticancer human tumor 997537-175-T-J1-PDC cell line growth inhibition [GQUAD];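 note: spheroids exposed to the agents for 7 days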;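 for viability, T/C: 100% = DMSO vehicle control viability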
- run.conditions: second compound 3.16 µM; first compound 0.0316 µM; stronger effect = lower value
measured.endpoint: viability, T/C (%)
Field: numeric (%). Do not append units.

CCc1c2c(nc3ccc(O)cc13)-c1cc3c(c(=O)n1C2)COC(=O)[C@]3(O)CC + Cc1cnc(CNC(=O)c2c(=O)c3ccc(N4CCCN(C)CC4)nc3n3c2sc2ccccc23)cn1
32.5
C=CCn1c(=O)c2cnc(Nc3ccc(N4CCN(C)CC4)cc3)nc2n1-c1cccc(C(C)(C)O)n1 + Cc1[nH]c2ccc(F)cc2c1-c1nc2c3cccnc3c3ncccc3c2[nH]1
92

We now examine a further molecule.
-- ask Please report the recorded viability, T/C for Cc1cccc(N(C)C(=O)C2C(O)CCN2c2nc(C)cc(C(F)(F)F)c2C#N)c1 (stereo not drawn) + Cc1[nH]c2ccc(F)cc2c1-c1nc2c3cccnc3c3ncccc3c2[nH]1 .
-- reply 57.9

----------
- Test system: 997537-175-T-J1-PDC complex spheroid viability
- assay.protocol: Anticancer human tumor 997537-175-T-J1-PDC cell line growth inhibition [GQUAD];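 note: spheroids exposed to the agents for 7 days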;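 for viability, T/C: 100% = DMSO vehicle control viability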
- run.conditions: second compound 1 µM; first compound 3.16 µM; stronger effect = lower value
Recorded viability, T/C values for a group of compounds are listed next.
Field: numeric (%). Do not append units.

# count of solved cases: 8
CC1COCCN1c1cc(C2(O)CC3CCC(C2)O3)c2cnn(-c3ccn[nH]3)c2n1 (stereo unspecified) + Cc1[nH]c2ccc(F)cc2c1-c1nc2c3cccnc3c3ncccc3c2[nH]1
38.7
CC(C)(O)C1CCC(Nc2ccc3ncc(-c4cccc(C(F)(F)F)c4)n3n2)CC1 (stereo unspecified) + Cc1[nH]c2ccc(F)cc2c1-c1nc2c3cccnc3c3ncccc3c2[nH]1
97.7
CC(=O)O[C@H]1C(=O)[C@@]2(C)[C@H]([C@H](OC(=O)c3ccccc3)[C@]3(O)C[C@H](OC(=O)[C@H](O)[C@@H](NC(=O)c4ccccc4)c4ccccc4)C(C)=C1C3(C)C)[C@]1(OC(C)=O)CO[C@@H]1C[C@@H]2O + CN(C)c1ccc(Nc2c3ccc(NC(=O)CCN4CCCC4)cc3nc3cc(NC(=O)CCN4CCCC4)ccc23)cc1
29.6
COc1ccc([C@@H](O)c2cc(-c3ncnc4cc(N5CCOCC5)ccc34)c(F)cc2Cl)nn1 + Cc1[nH]c2ccc(F)cc2c1-c1nc2c3cccnc3c3ncccc3c2[nH]1
86.6
Cc1cccc(N(C)C(=O)C2C(O)CCN2c2nc(C)cc(C(F)(F)F)c2C#N)c1 (stereo unspecified) + Cc1cnc(CNC(=O)c2c(=O)c3ccc(N4CCCN(C)CC4)nc3n3c2sc2ccccc23)cn1
106
O=c1[nH]cc(F)c(=O)[nH]1 + Cc1[nH]c2ccc(F)cc2c1-c1nc2c3cccnc3c3ncccc3c2[nH]1
108
O=C(NO)c1cnc(N2CCN(S(=O)(=O)c3ccc4ccccc4c3)CC2)nc1 + CN(C)c1ccc(Nc2c3ccc(NC(=O)CCN4CCCC4)cc3nc3cc(NC(=O)CCN4CCCC4)ccc23)cc1
3.02
CC1COCCN1c1cc(C2(S(C)(=N)=O)CC2)nc(-c2ccnc3[nH]ccc23)n1 (stereo unspecified) + CN(C)c1ccc(Nc2c3ccc(NC(=O)CCN4CCCC4)cc3nc3cc(NC(=O)CCN4CCCC4)ccc23)cc1
70.9

-- ask Find the measured viability, T/C: item CC1COCCN1c1cc(C2(O)CC3CCC(C2)O3)c2cnn(-c3ccn[nH]3)c2n1 (stereo unspecified) + Cc1cnc(CNC(=O)c2c(=O)c3ccc(N4CCCN(C)CC4)nc3n3c2sc2ccccc23)cn1 , target or system 997537-175-T-J1-PDC complex spheroid viability.
-- reply 62.7

-- ask Note, next up: O=C(NO)c1cnc(N2CCN(S(=O)(=O)c3ccc4ccccc4c3)CC2)nc1 + Cc1[nH]c2ccc(F)cc2c1-c1nc2c3cccnc3c3ncccc3c2[nH]1
-- reply 23.6

-- ask Note, next up: CC1COCCN1c1cc(C2(O)CC3CCC(C2)O3)c2cnn(-c3ccn[nH]3)c2n1 (stereo unspecified) + CN(C)c1ccc(Nc2c3ccc(NC(=O)CCN4CCCC4)cc3nc3cc(NC(=O)CCN4CCCC4)ccc23)cc1
-- reply 49
